- system: Gamma-secretase
- procedure_text: Modulation of gamma-secretase in human H4 cells expressing human wild type APP751 assessed as increase in amyloid beta38 level incubated for 17 hrs by ELISA
value_kind: EC50
Remember to follow the number with its unit.

Supply EC50 value. Item: CC1CCN([C@H](c2ccc(F)cc2)c2ccc([C@@H](C)C(=O)O)cc2-c2ccc(C(F)(F)F)cc2)CC1
0.146 µM

* * *

- system: Gamma-secretase
- procedure_text: Modulation of gamma-secretase in human H4 cells expressing human wild type APP751 assessed as reduction in amyloid beta42 level incubated for 17 hrs by ELISA
- Type: cell-based
value_kind: pIC50
Keep in mind that pIC50 stands for -log10 of concentration in molar terms.

Supply pIC50 value. Item: CC1CCN([C@H](c2ccc(F)cc2)c2ccc([C@@H](C)C(=O)O)cc2-c2ccc(C(F)(F)F)cc2)CC1
7.19
